Assignment: determine reported AC50 for the given compounds.
Target: T. gondii ME49Luc in IFN-y HeLa, luciferase, 72 h
Test: T. gondii growth inhibition with IFN-gamma, dose response, cell-based, ME49Luc, HeLa, luciferase, 72 h (AID 1259418)
Records with an inconclusive call do not appear. Calls of active or inactive are those of the source.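 The calls were made as follows: active = fitted half-maximal concentration of signal decrease at or below twice the sample's top tested concentration; inconclusive = flat curve between -70 and -30 percent, or poor fit; inactive = flat within 30 percent, signal rise, or potency above limit.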

Challenge: I have this compound here, "COc1ccc2c(c1)NC1(CCN(C(=O)Cc3ccc(OC)c(OC)c3)CC1)c1cccn1-2" , and I need its recorded AC50.
Response given: > 39 µM (inactive)

Challenge: I have this compound here, COc1ccc(CNC(=O)CC2N=C3c4ccccc4N=C(SCc4ccc(F)cc4)N3C2=O)cc1 (stereo not given) , and I need its recorded AC50.
Response given: 22.6 µM

Challenge: I have this compound here, "Cc1cccc(CN2CCC3(CC2)N=C(c2cccc(C)c2)C(=O)N3)c1" , and I need its recorded AC50.
Response given: > 20 µM (inactive)

Challenge: I have this compound here, "Cc1nc(OCC(=O)Nc2cccc(F)c2)c2ccccc2n1" , and I need its recorded AC50.
Response given: 28.8 µM

Challenge: I have this compound here, "COc1cccc(S(=O)(=O)N2CCCCN3[C@H](C2)[C@@H](c2ccc(C#CCC(C)C)cc2)[C@@H]3CO)c1" , and I need its recorded AC50.
Response given: 15.3 µM

###

Target: T. gondii ME49Luc in IFN-y HeLa, luciferase, 72 h
Assay: T. gondii growth inhibition with IFN-gamma, dose response, cell-based, ME49Luc, HeLa, luciferase, 72 h (AID 1259418)
Results filed as inconclusive are left out. Calls of active or inactive are those of the source.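 How the source made its calls: active means fitted half-maximal concentration of signal decrease at or below twice the sample's top tested concentration; inconclusive means flat curve between -70 and -30 percent, or poor fit; inactive means flat within 30 percent, signal rise, or potency above limit.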 Starred links: 1 amine or outer side, 2 acyl side, 3 side chain; linkers in the order of their positions; H or OH if unused. Positions of bridges follow the written chain, without caps; N, C: chain ends. Non-standard residues stand in square brackets, D forms with d. Residues, ends and D or L forms follow the SMILES beside them. ξ: configuration not given here. *: point of attachment. pTerphenylCO(4''-OnC5H11) = CCCCCOc1ccc(-c2ccc(-c3ccc(C(=O)*)cc3)cc2)cc1; ξOrn(4,5-diOH) = O=C(C(CC(O)C(O)N[*:3])N[*:1])[*:2]; ξhTyr(βξ-OH,γξ-OH) = NC(C(=O)O)C(O)C(O)c1ccc(O)cc1; ξPro(3ξ-OH,4ξ-Me) = CC1CNC(C(=O)O)C1O; Hyp = O=C(O)[CH]1C[CH](O)CN1
The reply should name one outcome from active, inactive

Challenge: Answer briefly: the call reported for "N#C[C@H]1[C@H](c2ccc(-c3cccc(F)c3)cc2)[C@@H](CO)N1C(=O)NC1CCCC1" in this assay.
Response given: active

Challenge: Answer briefly: the call reported for CCCCCOc1ccc(-c2ccc(-c3ccc(C(=O)NC4CC(O)C(O)NC(=O)C5C(O)C(C)CN5C(=O)C(C(C)O)NC(=O)C(C(O)C(O)c5ccc(O)cc5)NC(=O)C5CC(O)CN5C(=O)C(C(C)O)NC4=O)cc3)cc2)cc1 (stereo not drawn) ({pTerphenylCO(4''-OnC5H11)}-[ξOrn(4,5-diOH)]T[Hyp][ξhTyr(βξ-OH,γξ-OH)]T[ξPro(3ξ-OH,4ξ-Me)]; lactam 1-C; configuration not given here) in this assay.
Response given: active

Challenge: Answer briefly: the call reported for "Cc1ccc(CNC2=NCCNC23CCN(S(=O)(=O)c2ccc(Cl)s2)CC3)cc1" in this assay.
Response given: active

Challenge: Answer briefly: the call reported for "COc1ccc(-c2nc(N3CCN(C4CCCCC4)CC3)c3ccccc3n2)cc1" in this assay.
Response given: active

Challenge: Answer briefly: the call reported for "Cc1ccc(NC(=O)N2CCN(Cc3nc(-c4cccc(Cl)c4)oc3C)CC2)c(Cl)c1" in this assay.
Response given: active

Challenge: Answer briefly: the call reported for "N#Cc1cccc(-c2ccc3c(c2)[C@@H]2[C@@H](CCN2C(=O)c2ccccc2F)[C@@H](CO)N3)c1" in this assay.
Response given: active

Challenge: Answer briefly: the call reported for O=C(CCC1N=C2c3ccccc3N=C(SCc3cccc(Cl)c3)N2C1=O)NCc1cccs1 (stereo unspecified) in this assay.
Response given: active

Challenge: Answer briefly: the call reported for "CN(c1ccc(F)cc1)c1nc(-c2ccc(Cl)cc2)nc2ccccc12" in this assay.
Response given: active

Challenge: Answer briefly: the call reported for "COc1ccc(C#Cc2ccc([C@@H]3[C@H](CO)N4C(=O)CN(C(=O)NC(C)C)C[C@@H]34)cc2)cc1" in this assay.
Response given: active

Challenge: Answer briefly: the call reported for "O=C(c1cccn2c(-c3ccc(F)cc3)nnc12)N1CCC(O)(c2ccc(Cl)cc2)CC1" in this assay.
Response given: active

Challenge: Answer briefly: the call reported for "O=C(NCCc1csc(-c2ccccc2)n1)C1CCN(C(=O)c2ccc(F)c(Cl)c2)CC1" in this assay.
Response given: active

Challenge: Answer briefly: the call reported for "C[C@@H]1CN([C@@H](C)CO)C(=O)c2cccc(NC(=O)NC3CCCCC3)c2O[C@@H]1CN(C)Cc1ccc(C(F)(F)F)cc1" in this assay.
Response given: active

Challenge: Answer briefly: the call reported for "Cc1cccc(C(=O)N2CCC(C(=O)NCCc3csc(C)n3)CC2)c1" in this assay.
Response given: active

Challenge: Answer briefly: the call reported for CCc1c(C)sc2c1CCN(Cc1nc(-c3cc(C)ccc3C)oc1C)C2c1ccccc1 (stereo unspecified) in this assay.
Response given: active

Challenge: Answer briefly: the call reported for "CN(C)C(=O)c1cccc(-c2ccc3c(c2)[C@@H]2[C@@H](CCN2C(=O)Cc2ccccc2)[C@@H](CO)N3)c1" in this assay.
Response given: active

Challenge: Answer briefly: the call reported for "Fc1ccc(Nc2nc(SCc3ccc(Cl)cc3)nc3ccccc23)cc1F" in this assay.
Response given: active

Challenge: Answer briefly: the call reported for "O=C(Nc1cccc(F)c1)N1CCCCN2[C@H](CO)[C@H](c3ccc(C#Cc4cccnc4)cc3)[C@H]2C1" in this assay.
Response given: active

Challenge: Answer briefly: the call reported for "Clc1ccccc1CSc1nc(NCc2ccccc2)c2ccccc2n1" in this assay.
Response given: inactive

Challenge: Answer briefly: the call reported for CC(C)(C)NC(=O)[C@@H]1CC2CCCCC2CN1C[C@@H](O)[C@H](Cc1ccccc1)NC(=O)[C@H](CC(N)=O)NC(=O)c1ccc2ccccc2n1 (stereo partly specified) in this assay.
Response given: active

Challenge: Answer briefly: the call reported for "Cc1ccc(C(=O)N2CCC3(CC2)Nc2ccc(Cl)cc2-n2cccc23)cc1F" in this assay.
Response given: inactive

Challenge: Answer briefly: the call reported for O=C(CC1N=C2c3ccccc3N=C(SCc3ccccc3F)N2C1=O)NC1CCCCC1 (stereo unspecified) in this assay.
Response given: active

Challenge: Answer briefly: the call reported for "O=C1CNC[C@H]2[C@@H](c3ccc(C#Cc4cccnc4)cc3)[C@@H](CO)N12" in this assay.
Response given: active

Challenge: Answer briefly: the call reported for "COc1cc(NC(=O)Nc2ccc(-c3nc(-c4cc(C)ccc4C)co3)cc2)cc(OC)c1OC" in this assay.
Response given: active

Challenge: Answer briefly: the call reported for O=C(CC1Nc2c3ccccc3nc(=S)n2C1=O)NCc1ccc2c(c1)OCO2 (stereo unspecified) in this assay.
Response given: inactive

Challenge: Answer briefly: the call reported for "COc1ccccc1N(Cc1nc(-c2ccc(C)cc2)oc1C)S(=O)(=O)c1ccc(C)cc1" in this assay.
Response given: active

Challenge: Answer briefly: the call reported for "CCOc1ccc(-c2nc(CN(c3ccc(OC)cc3)S(=O)(=O)c3ccccc3C)c(C)o2)cc1" in this assay.
Response given: active

Challenge: Answer briefly: the call reported for "CC(C)CCN1Cc2c(C(=O)NC3CCCCC3)ncn2-c2ccccc2S1(=O)=O" in this assay.
Response given: active

Challenge: Answer briefly: the call reported for "CS(=O)(=O)N1CC(=O)N2[C@H](C1)[C@@H](c1ccc(C#Cc3ccc(F)cc3)cc1)[C@@H]2CO" in this assay.
Response given: active

Challenge: Answer briefly: the call reported for "CC(C)CC#Cc1ccc([C@H]2[C@@H](CO)N3C(=O)CN(C(=O)c4cccc(F)c4)C[C@H]23)cc1" in this assay.
Response given: active

Challenge: Answer briefly: the call reported for CCCN(C/C=C/I)C1CCc2cccc(O)c2C1 (stereo unspecified) in this assay.
Response given: active

Challenge: Answer briefly: the call reported for "COc1ccc(-c2nc(Nc3ccc(CN4CCCCC4)cc3)c3ccccc3n2)cc1" in this assay.
Response given: active

###

Target: T. gondii ME49Luc in IFN-y HeLa, luciferase, 72 h
Assay: T. gondii growth inhibition with IFN-gamma, dose response, cell-based, ME49Luc, HeLa, luciferase, 72 h (AID 1259418)
Inconclusive results are not listed. Activity calls are given as the source filed them.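 The calls were made as follows: active = fitted half-maximal concentration of signal decrease at or below twice the sample's top tested concentration; inconclusive = flat curve between -70 and -30 percent, or poor fit; inactive = flat within 30 percent, signal rise, or potency above limit.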
The reply should name one outcome from active, inactive

Challenge: Answer briefly: the call reported for "CCOc1ccc(-c2nc(CN3CCN(C(=O)Nc4cccc(Cl)c4)CC3)c(C)o2)cc1" in this assay.
Response given: active

Challenge: Answer briefly: the call reported for "O=C(Nc1cccc(F)c1)N1CCCCN2[C@@H](CO)[C@@H](c3ccc(C#Cc4cccnc4)cc3)[C@@H]2C1" in this assay.
Response given: inactive

Challenge: Answer briefly: the call reported for "CC(C)Cc1ccc(S(=O)(=O)N2CCC3(CC2)NCCN=C3NCc2ccc(F)cc2)cc1" in this assay.
Response given: active

Challenge: Answer briefly: the call reported for "CCN1CCN(c2nc(-c3ccc(OC)cc3)nc3ccccc23)CC1" in this assay.
Response given: active

Challenge: Answer briefly: the call reported for "C=C(C)[C@@H]1CC[C@]2(C(=O)O)CC[C@]3(C)[C@H](CC[C@@H]4[C@@]5(C)CC[C@H](O)C(C)(C)[C@@H]5CC[C@]43C)[C@@H]12" in this assay.
Response given: active

Challenge: Answer briefly: the call reported for "O=S(=O)(c1ccc2c(c1)CCCC2)N1CCC2(CC1)NCCN=C2NCc1ccccc1" in this assay.
Response given: active

Challenge: Answer briefly: the call reported for "CC/C(=C(\c1ccccc1)c1ccc(OCCN(C)C)cc1)c1ccccc1" in this assay.
Response given: active

Challenge: Answer briefly: the call reported for "O=C(c1ccc(F)cc1)N1CC(=O)N2[C@@H](CO)[C@@H](c3ccc(C#CCC4CCCC4)cc3)[C@@H]2C1" in this assay.
Response given: active

Challenge: Answer briefly: the call reported for "COc1ccc(N(Cc2nc(-c3ccc(C)cc3)oc2C)S(=O)(=O)c2ccccc2)cc1" in this assay.
Response given: active

Challenge: Answer briefly: the call reported for "O=C(Cc1ccncc1)N1CCCCN2[C@H](CO)[C@H](c3ccc(C#Cc4ccccc4F)cc3)[C@H]2C1" in this assay.
Response given: active

Challenge: Answer briefly: the call reported for "CCc1nc(OCC(=O)NCc2ccccc2)c2ccccc2n1" in this assay.
Response given: active

Challenge: Answer briefly: the call reported for "Cc1ccc(NC(=O)N2CCN(Cc3nc(-c4cccc(Cl)c4)oc3C)CC2)cc1" in this assay.
Response given: inactive

Challenge: Answer briefly: the call reported for O=S(=O)(c1ccccc1)N1CCc2c([nH]c3ccccc23)C1c1cc(F)ccc1F (stereo not drawn) in this assay.
Response given: active

Challenge: Answer briefly: the call reported for "O=S(=O)(c1ccc(Cl)s1)N1CCC2(CC1)NCCN=C2NCc1ccc2c(c1)OCO2" in this assay.
Response given: active

Challenge: Answer briefly: the call reported for "CCCNC(=O)N1[C@H](C#N)[C@H](c2ccc(-c3ccccc3F)cc2)[C@@H]1CO" in this assay.
Response given: active

Challenge: Answer briefly: the call reported for "O=c1c(O)c(-c2ccc(O)c(O)c2)oc2cc(O)cc(O)c12" in this assay.
Response given: active

Challenge: Answer briefly: the call reported for "COc1ccc(CNC2=NCCNC23CCN(S(=O)(=O)c2ccc(C)c(C)c2)CC3)cc1" in this assay.
Response given: inactive

Challenge: Answer briefly: the call reported for "CCc1cnc(N2[C@H](C#N)[C@H](c3ccc(C#Cc4ccccc4F)cc3)[C@@H]2CO)s1" in this assay.
Response given: active

Challenge: Answer briefly: the call reported for "O=C(C[C@@H]1CC[C@@H]2[C@H](COC[C@@H](O)CN2Cc2ccc(Oc3ccccc3)cc2)O1)N1CCN(c2ccccc2)CC1" in this assay.
Response given: active

Challenge: Answer briefly: the call reported for "COc1ccc(-c2nc(Cn3nnc(-c4nc(-c5ccc(OC)c(OC)c5)no4)c3C)c(C)o2)cc1" in this assay.
Response given: active

Challenge: Answer briefly: the call reported for "Clc1ccc(-c2nc(NC3CCCC3)c3ccccc3n2)cc1" in this assay.
Response given: active

Challenge: Answer briefly: the call reported for "O=C(CCn1cnc2cc(-c3noc(-c4cc5cc(Cl)ccc5[nH]4)n3)ccc21)N1CCCC1" in this assay.
Response given: active

Challenge: Answer briefly: the call reported for "CC(C)Cc1ccc(S(=O)(=O)N2CCC3(CC2)NCCN=C3NCc2cccc(F)c2)cc1" in this assay.
Response given: active

Challenge: Answer briefly: the call reported for "Cc1ccc(C)c(S(=O)(=O)N2CCC3(CC2)NCCN=C3NCc2ccccc2Cl)c1" in this assay.
Response given: active

Challenge: Answer briefly: the call reported for "O=C(Cc1cccnc1)N1CC(=O)N2[C@@H](CO)[C@H](c3ccc(C4=CCCCC4)cc3)[C@@H]2C1" in this assay.
Response given: inactive

Challenge: Answer briefly: the call reported for "COc1ccc(CNC2=NCCNC23CCN(S(=O)(=O)c2ccc(CC(C)C)cc2)CC3)cc1" in this assay.
Response given: active

Challenge: Answer briefly: the call reported for "COc1ccc(-c2nc(CN(c3ccccc3)S(=O)(=O)c3cccs3)c(C)o2)cc1OC" in this assay.
Response given: active

Challenge: Answer briefly: the call reported for "COc1ccccc1NC(=O)N1CCCCN2[C@H](CO)[C@@H](c3ccc(-c4cccc(C#N)c4)cc3)[C@@H]2C1" in this assay.
Response given: active

Challenge: Answer briefly: the call reported for "Cc1ccc(S(=O)(=O)Nc2ccc3c(c2)C(=O)N([C@H](C)CO)C[C@H](C)[C@H](CN(C)Cc2ccc(C(F)(F)F)cc2)O3)cc1" in this assay.
Response given: active

Challenge: Answer briefly: the call reported for "COc1ccc(-c2nc(NC3CCN(Cc4ccccc4)CC3)c3ccccc3n2)cc1" in this assay.
Response given: active

Challenge: Answer briefly: the call reported for "COCC(=O)N1[C@H](C#N)[C@H](c2ccc(C#Cc3ccccc3F)cc2)[C@@H]1CO" in this assay.
Response given: inactive

Challenge: Answer briefly: the call reported for "CCOc1ccccc1N(Cc1nc(-c2ccc(OC)cc2)oc1C)S(=O)(=O)c1cccs1" in this assay.
Response given: active

Challenge: Answer briefly: the call reported for C=CCN1CCC2(CC1)CC(NCc1ccc(C)s1)c1ccccc1O2 (stereo not drawn) in this assay.
Response given: active
